Item-by-item account of inhibition at 1500 g/ha
Tested on: Amaranthus retroflexus
Experiment notes: Herbicidal activity against Amaranthus retroflexus assessed as inhibition of weed growth at 1.5 kg/ha using postemergence treatment protocol
Type: functional
Experimental parameters: post-emergence

{"columns": ["Smiles representation", "System name", "inhibition at 1500 g/ha"],
 "data": [
  ["CCOCCOC(=O)/C(C#N)=C(\\NCc1ccc(Cl)nc1)SC", "Amaranthus retroflexus", "100%"],
  ["CCOCCOC(=O)/C(C#N)=C(\\NCc1cc(-c2ccccc2OC)no1)C(C)C", "Amaranthus retroflexus", "95.1%"],
  ["CCOCCOC(=O)/C(C#N)=C(\\NCc1cc(-c2ccc(OC)cc2)no1)C(C)C", "Amaranthus retroflexus", "100%"],
  ["CCOCCOC(=O)/C(C#N)=C(\\NCc1cc(-c2ccccc2OC)no1)SC", "Amaranthus retroflexus", "90.6%"],
  ["CCOCCOC(=O)/C(C#N)=C(\\NCc1cc(C(C)C)no1)C(C)C", "Amaranthus retroflexus", "100%"],
  ["CCOCCOC(=O)/C(C#N)=C(\\NCc1cc(-c2ccc(Cl)cc2Cl)no1)C(C)C", "Amaranthus retroflexus", "100%"],
  ["CCOCCOC(=O)/C(C#N)=C(\\NCc1cc(-c2ccc(C(C)(C)C)cc2)no1)C(C)C", "Amaranthus retroflexus", "100%"],
  ["CCOCCOC(=O)/C(C#N)=C(\\NCc1cc(-c2ccc(OC)cc2)no1)SC", "Amaranthus retroflexus", "100%"]
]}
